- Test system: BV-173 (Chronic Myelogenous Leukemia)
- Assay overview: combination Emax (second highest fraction inhibited in the dose matrix, 72 h); higher = more inhibition; extreme values may be limits of the assay
Each record here notes measured combination Emax.
Lab note: jot the number down without any unit.

compound="CC1(C)CCC(CN2CCN(c3ccc(C(=O)NS(=O)(=O)c4ccc(NCC5CCOCC5)c([N+](=O)[O-])c4)c(Oc4cnc5[nH]ccc5c4)c3)CC2)=C(c2ccc(Cl)cc2)C1 [Venetoclax] + Cc1cc2ncnn2cc1Nc1ncc2c(n1)n(C1CCOCC1)c(=O)n2C [AZD7648] (first compound max 1 µM, 7x7, partner max 10 µM)" value_measured=0.811

Prompt: Sample CC(=O)c1c(C)c2cnc(Nc3ccc(N4CCNCC4)cn3)nc2n(C2CCCC2)c1=O [Palbociclib] + Cc1c2c(nn1C)CSCc1cc(n(C)n1)CSc1cc(c3ccccc3c1)OCCCc1c(C(=O)O)n(C)c3c-2c(Cl)ccc13 [AZD5991] (first compound max 10 µM, 7x7, partner max 1 µM) — what was its combination Emax?
Completion: 0.88

---

- Test system: BV-173 (Chronic Myelogenous Leukemia)
- Assay overview: combination Emax (second highest fraction inhibited in the dose matrix, 72 h); higher = more inhibition; extreme values may be limits of the assay
Measured parameter: combination Emax
// print number alone

Examples with answers:
compound="Cc1cc2ncnn2cc1Nc1ncc2c(n1)n(C1CCOCC1)c(=O)n2C [AZD7648] + O=C(c1cc(Cc2n[nH]c(=O)c3ccccc23)ccc1F)N1CCN(C(=O)C2CC2)CC1 [Olaparib] (first compound max 10 µM, 7x7, partner max 10 µM)" value_measured=0.897
compound="CN(C)CCCOc1ccc(-c2ccc3ncc4c(c3c2)n(C2CCOCC2)c(=O)n4C)cn1 [AZD0156] + O=C(c1cc(Cc2n[nH]c(=O)c3ccccc23)ccc1F)N1CCN(C(=O)C2CC2)CC1 [Olaparib] (first compound max 3 µM, partner max 3 µM)" value_measured=0.764
compound="Cn1cnc2c(F)c(Nc3ccc(Br)cc3Cl)c(C(=O)NOCCO)cc21 [Selumetinib] + C[C@@H]1COCCN1C2=NC(=NC(=C2)C3(CC3)[S@](=N)(=O)C)C4=C5C=CNC5=NC=C4 [AZD6738] (first compound max 10 µM, 7x7, partner max 10 µM)" value_measured=0.947
compound="CN(CCO)CC[C@H](CSc1ccccc1)Nc1ccc(S(=O)(=O)NC(=O)c2ccc(N3CCC([C@@H](O)c4ccccc4-c4ccc(Cl)cc4)CC3)cc2)cc1S(=O)(=O)C(F)(F)F [AZD4320] + C[C@@H]1COCCN1C2=NC(=NC(=C2)C3(CC3)[S@](=N)(=O)C)C4=C5C=CNC5=NC=C4 [AZD6738] (first compound max 1 µM, 7x7, partner max 10 µM)" value_measured=0.953
compound="CN(CCO)CC[C@H](CSc1ccccc1)Nc1ccc(S(=O)(=O)NC(=O)c2ccc(N3CCC([C@@H](O)c4ccccc4-c4ccc(Cl)cc4)CC3)cc2)cc1S(=O)(=O)C(F)(F)F [AZD4320] + Cn1cnc2c(F)c(Nc3ccc(Br)cc3Cl)c(C(=O)NOCCO)cc21 [Selumetinib] (first compound max 1 µM, 7x7, partner max 3 µM)" value_measured=0.963

Prompt: Short answer please: combination Emax, BV-173 (Chronic Myelogenous Leukemia), entry Cc1cc2ncnn2cc1Nc1ncc2c(n1)n(C1CCOCC1)c(=O)n2C [AZD7648] + CCN(CCO)CCCOc1ccc2c(Nc3cc(CC(=O)Nc4cccc(F)c4)[nH]n3)ncnc2c1 [AZD2811] (first compound max 10 µM, 7x7, partner max 1 µM)
Completion: 0.964

Prompt: What combination Emax appears in the records for this compound with BV-173 (Chronic Myelogenous Leukemia)? Cc1c2c(nn1C)CSCc1cc(n(C)n1)CSc1cc(c3ccccc3c1)OCCCc1c(C(=O)O)n(C)c3c-2c(Cl)ccc13 [AZD5991] + Cn1cnc2c(F)c(Nc3ccc(Br)cc3Cl)c(C(=O)NOCCO)cc21 [Selumetinib] (first compound max 1 µM, 7x7, partner max 3 µM)
Completion: 0.938

---

- Test system: KYSE-50 (Esophageal Squamous Cell Carcinoma)
- Assay overview: Bliss excess, mean over the matrix (fraction); higher = more synergy
Parameter: Bliss excess. Scope: all listed entries.
Give the figure by itself; no unit, no explanation.

compound="NC1(C(=O)N[C@@H](CCO)c2ccc(Cl)cc2)CCN(c2ncnc3[nH]ccc23)CC1 [Capivasertib] + C[C@@H]1COCCN1C2=NC(=NC(=C2)C3(CC3)[S@](=N)(=O)C)C4=C5C=CNC5=NC=C4 [AZD6738] (first compound max 10 µM, 7x7, partner max 10 µM)" value_measured=-0.0673
compound="CC1(C)CCC(CN2CCN(c3ccc(C(=O)NS(=O)(=O)c4ccc(NCC5CCOCC5)c([N+](=O)[O-])c4)c(Oc4cnc5[nH]ccc5c4)c3)CC2)=C(c2ccc(Cl)cc2)C1 [Venetoclax] + Cc1cc2ncnn2cc1Nc1ncc2c(n1)n(C1CCOCC1)c(=O)n2C [AZD7648] (first compound max 1 µM, 7x7, partner max 10 µM)" value_measured=0.0065

Would you kindly look at the next entry?
Prompt: Query: Bliss excess; subject: CS(=O)(=O)CCNCc1ccc(-c2ccc3ncnc(Nc4ccc(OCc5cccc(F)c5)c(Cl)c4)c3c2)o1 [Lapatinib] + C[C@@H](Oc1cc(-c2cnn(C3CCNCC3)c2)cnc1N)c1c(Cl)ccc(F)c1Cl [Crizotinib] (first compound max 10 µM, 7x7, partner max 10 µM)
Completion: -0.0352

---

- System: OCUM-1 (Gastric Carcinoma)
- Assay overview: Bliss excess, mean over the matrix (fraction); higher = more synergy
Measured parameter: Bliss excess
The response must contain the number and no unit.

molecule="CC1(C)CCC(CN2CCN(c3ccc(C(=O)NS(=O)(=O)c4ccc(NCC5CCOCC5)c([N+](=O)[O-])c4)c(Oc4cnc5[nH]ccc5c4)c3)CC2)=C(c2ccc(Cl)cc2)C1 [Venetoclax] + COc1cc(Nc2ncc3c(n2)-c2ccc(Cl)cc2C(c2c(F)cccc2OC)=NC3)ccc1C(=O)O [Alisertib] (first compound max 1 µM, 7x7, partner max 10 µM)" measured_parameter="Bliss excess" value_measured=0.0489

// below: Bliss excess requested for another molecule
Prompt: Consider the molecule shown here: CN(CCO)CC[C@H](CSc1ccccc1)Nc1ccc(S(=O)(=O)NC(=O)c2ccc(N3CCC([C@@H](O)c4ccccc4-c4ccc(Cl)cc4)CC3)cc2)cc1S(=O)(=O)C(F)(F)F [AZD4320] + C[C@@H]1COCCN1C2=NC(=NC(=C2)C3(CC3)[S@](=N)(=O)C)C4=C5C=CNC5=NC=C4 [AZD6738] (first compound max 1 µM, 7x7, partner max 10 µM) What is its recorded Bliss excess?
Completion: -0.0134

---

- System: EW-18 (Ewing's Sarcoma)
- Assay overview: combination Emax (second highest fraction inhibited in the dose matrix, 72 h); higher = more inhibition; extreme values may be limits of the assay
Measured parameter: combination Emax
Output spec: single numeric token, no unit.

molecule="CC1(C)CCC(CN2CCN(c3ccc(C(=O)NS(=O)(=O)c4ccc(NCC5CCOCC5)c([N+](=O)[O-])c4)c(Oc4cnc5[nH]ccc5c4)c3)CC2)=C(c2ccc(Cl)cc2)C1 [Venetoclax] + C[C@@H](Nc1cc(F)cc(F)c1)c1cc(C(=O)N(C)C)cc2c(=O)cc(N3CCOCC3)oc12 [AZD8186] (first compound max 1 µM, 7x7, partner max 3 µM)" measured_parameter="combination Emax" value_measured=0.599

Prompt: Request the reported combination Emax associated with Cc1c2c(nn1C)CSCc1cc(n(C)n1)CSc1cc(c3ccccc3c1)OCCCc1c(C(=O)O)n(C)c3c-2c(Cl)ccc13 [AZD5991] + CC1(C)CCC(CN2CCN(c3ccc(C(=O)NS(=O)(=O)c4ccc(NCC5CCOCC5)c([N+](=O)[O-])c4)c(Oc4cnc5[nH]ccc5c4)c3)CC2)=C(c2ccc(Cl)cc2)C1 [Venetoclax] (first compound max 1 µM, 7x7, partner max 1 µM)
Completion: 0.919

---

- Tested on: SNU-C1 (Colorectal Carcinoma)
- Assay overview: Bliss excess, mean over the matrix (fraction); higher = more synergy
Bliss excess overview
Give the figure by itself; no unit, no explanation.

Worked examples, 2 compounds total:
compound="Cc1c2c(nn1C)CSCc1cc(n(C)n1)CSc1cc(c3ccccc3c1)OCCCc1c(C(=O)O)n(C)c3c-2c(Cl)ccc13 [AZD5991] + Cc1cc2ncnn2cc1Nc1ncc2c(n1)n(C1CCOCC1)c(=O)n2C [AZD7648] (first compound max 1 µM, 7x7, partner max 10 µM)" target_system="SNU-C1 (Colorectal Carcinoma)" value_measured=-0.0742
compound="Cc1nc(Nc2ncc(C(=O)Nc3c(C)cccc3Cl)s2)cc(N2CCN(CCO)CC2)n1 [Dasatinib] + CC(=O)Nc1cccc(-n2c(=O)n(C3CC3)c(=O)c3c(Nc4ccc(I)cc4F)n(C)c(=O)c(C)c32)c1 [Trametinib] (first compound max 2 µM, 7x7, partner max 1 µM)" target_system="SNU-C1 (Colorectal Carcinoma)" value_measured=-0.0616

From here, focus on the item given below.
Prompt: State the recorded Bliss excess for this entry: Cc1nc(-c2cn3c(n2)-c2ccc(-c4cnn(C(C)(C)C(N)=O)c4)cc2OCC3)n(C(C)C)n1 [Taselisib] + O=C(Nc1ccc2[nH]nc(-c3ccncc3)c2c1)[C@@H]1CCN(CC(=O)N2CCN(c3ccc(-c4ncccn4)cc3)CC2)C1 [SCH772984] (first compound max 10 µM, 7x7, partner max 5 µM)
Completion: 0.108
